Tested on: SK-MEL-5 melanoma
Assay Remarks: NCI-60 one-dose screen, 48 h
Condition Summary: 10 µM unless noted
The panel holds about 83,000 compounds, 20% with a hit somewhere; the sample as a whole holds those more often. The source made the active and inactive calls. Rule for the calls: active = growth percent below 10; inactive = the rest.
The reply should name one outcome from true for active, false for inactive

{"columns": ["Compound", "Assigned Label"],
 "data": [
  ["CCN(CC)c1cc(N)c(Cc2c(N)cc(N(CC)CC)cc2Cl)c(Cl)c1", "true"],
  ["CCc1ccc(-c2ccc(COc3ccc(CC4SC(=O)NC4=O)cc3)cc2)cc1 (centres undefined)", "false"],
  ["Oc1c(CNCCNCc2cc(Cl)cc(Cc3ccccc3)c2O)cc(Cl)cc1Cc1ccccc1", "true"]
]}

Incoming: Test call for this compound, please: O=C(C[n+]1ccn(CC(OCc2ccc(Cl)cc2Cl)c2ccc(Cl)cc2Cl)c1)c1ccc(F)cc1 (centres undefined)
Outgoing: true

Incoming: For CNC(=O)c1cc(Oc2cccc3nc(NC(=O)Nc4cc(C(F)(F)F)cc(C(F)(F)F)c4)ccc23)ccn1 , which call appears in the assay record?
Outgoing: false

Incoming: Could you kindly confirm the outcome this assay logged for c1ccc(-c2nc(N3CCCNCC3)c3nc(-c4ccccc4)oc3n2)cc1 ?
Outgoing: false

Incoming: Which outcome was assigned to CC1(C)CC[C@]2(C(N)=O)CC[C@]3(C)C(=CC[C@@H]4[C@@]5(C)C/C(=C/c6ccncc6)C(=O)C(C)(C)[C@@H]5CC[C@]43C)[C@@H]2C1 in this test?
Outgoing: true

Incoming: For COc1cc(/C=C/C(=O)/C=C/c2ccc(-n3ccnc3)cc2)ccc1O , which call appears in the assay record?
Outgoing: false

Incoming: Outcome? Cn1cc(-c2nnc(-c3cn(C)c4ncccc34)o2)c2ccccc21
Outgoing: true

Incoming: How did this test come out for Cc1ccc(NC(=O)N[C@@H](Cc2cc(F)cc(F)c2)C(=O)N[C@@H]2C(=O)N3CCC[C@H]3C(=O)N3CCOC[C@H]3C(=O)N[C@@H](C)C(=O)N3C[C@H](C)C[C@H]3C(=O)O[C@H]2C)cc1 ?
Outgoing: false

Incoming: What call does the record list for C=C(C)[C@@H]1CC[C@]2(C(=O)NCCNCCNCCN)CC[C@]3(C)[C@H](CC[C@@H]4[C@@]5(C)CC[C@H](O)C(C)(C)[C@@H]5CC[C@]43C)[C@@H]12 ?
Outgoing: true

---

Tested on: NCI-H322M lung
Assay Remarks: NCI-60 one-dose screen, 48 h (100 = growth as untreated, 0 = no growth, -100 = all killed)
Condition Summary: 10 µM unless noted
Compounds without any hit were thinned out: in the full panel of roughly 83,000, 20% have a hit. Calls of active or inactive are those of the source. The calls were made as follows: active = growth percent below 10; inactive = the rest.
Recorded Metric: growth

Guide cases for growth, answers given:
{"columns": ["Compound", "Study Target", "growth"],
 "data": [
  ["CC1Cc2c(Cl)ncnc2N(C)c2ccccc21 (stereo unspecified)", "NCI-H322M lung", "26.8% (inactive)"],
  ["O=[N+]([O-])c1cccc(N=NNc2cccc([N+](=O)[O-])c2)c1", "NCI-H322M lung", "101% (inactive)"],
  ["CN(C)C(=S)Sc1ccc([N+](=O)[O-])cc1[N+](=O)[O-]", "NCI-H322M lung", "101% (inactive)"],
  ["N#Cc1c(Cl)nc(SCC2CO2)nc1-c1ccccc1 (stereo unspecified)", "NCI-H322M lung", "105% (inactive)"],
  ["C[C@H]1[C@H](C)CC[C@]2(COC(=O)CCC(=O)O)CC[C@]3(C)C(=CC[C@@H]4[C@@]5(C)CCCNC(C)(C)[C@@H]5CC[C@]43C)[C@H]12", "NCI-H322M lung", "86.8% [100 µM] (inactive)"]
]}

Now look at this one.
Incoming: What value of growth has been recorded for this entry: CCN(CC)CCCCCCNc1cccc2cc(Br)cnc12
Outgoing: 94.3% (inactive)

---

Test system: MCF7 breast
Assay Remarks: NCI-60 one-dose screen, 48 h
Condition Summary: 10 µM unless noted
The panel holds about 83,000 compounds, 20% with a hit somewhere; the sample as a whole holds those more often. Calls of active or inactive are those of the source. The calls were made as follows: active = growth percent below 10; inactive = the rest.
A correct response names exactly one class from active, inactive

Use these answered entries as a reference point.
{"columns": ["Compound", "Assigned Label"],
 "data": [
  ["CC[C@]12C=CCN3CC[C@@]4(c5ccc(OC)cc5N(C)[C@H]4[C@@](O)(C(=O)OC)[C@@H]1OC(=O)CCC(=O)O[C@H]1CC[C@H]4[C@@H]5CCC6=CC(=O)CC[C@@H]6[C@H]5CC[C@]14C)[C@@H]32", "inactive"],
  ["C=CCCC1(C)NC(=O)NC1=O (configuration not stated)", "inactive"],
  ["CC(=O)OC[C@]12CC[C@@H]([C@@H](C)C(N)=O)[C@@H]1[C@H]1CC[C@@H]3[C@@]4(C)CC[C@H](OC(C)=O)C(C)(C)[C@@H]4CC[C@@]3(C)[C@]1(C)CC2", "active"],
  ["CC(=O)O.CC(=O)O.O.[Fe]", "inactive"],
  ["Cc1nc(-c2ccccc2)sc1CC#N", "inactive"]
]}

Incoming: For O=C(NCc1ccccc1)C(Cl)Cl , which call appears in the assay record?
Outgoing: inactive

Incoming: Dear colleague, could you share the recorded outcome for Cc1ccc(Cn2c(O)c(N=NC(=O)c3ccc(S(N)(=O)=O)cc3)c3ccccc32)cc1 when you have a moment?
Outgoing: inactive

Incoming: Identify the outcome logged in this assay for the compound shown: Cc1ccc(-c2cc(-c3ccc(C)cc3)nc(NCCNc3ccnc4cc(Cl)ccc34)n2)cc1
Outgoing: active

Incoming: // return assay outcome for CCCCCCCCCCCCNC(=S)N/N=C/c1ccccc1O
Outgoing: inactive

Incoming: What is the recorded call for this compound in the test? COc1ccc2c(c1)C(C)Cc1c(Cl)nc(C)nc1N2C (configuration not stated)
Outgoing: inactive

Incoming: Hi, do you know how N/C(=N\c1nc2ccccc2[nH]1)NC(=O)Cc1cccc2ccccc12 came out in this test?
Outgoing: inactive

Incoming: Recorded test outcome, item C=C(C)[C@@H]1CC[C@]2(COCCC#N)CC[C@]3(C)[C@H](CC[C@@H]4[C@@](C)(CCCNCCC#N)[C@H](C(=C)C)CC[C@]43C)[C@@H]12
Outgoing: active

---

Tested on: MALME-3M melanoma
Assay Remarks: NCI-60 one-dose screen, 48 h
Condition Summary: 10 µM unless noted
The panel holds about 83,000 compounds, 20% with a hit somewhere; the sample as a whole holds those more often. Active and inactive are the calls of the source. The calls were made as follows: active = growth percent below 10; inactive = the rest.
Pick one: active, inactive

{"columns": ["Molecule", "Assigned Label"],
 "data": [
  ["Nc1cc(N)c(N=Nc2ccc(S(=O)(=O)O)cc2)cc1N=Nc1ccc(-c2ccc(N=Nc3ccc(O)c(C(=O)O)c3)cc2)cc1", "inactive"],
  ["O=c1[nH]c2cc(Cl)c(Cl)cc2n2cc3ncccc3c12", "inactive"]
]}

Incoming: # outcome recorded in this test, key = Cc1nc(Cl)cc(N(c2cc(Cl)nc(C)n2)c2ncc(C(=O)Nc3c(C)cccc3Cl)s2)n1
Outgoing: inactive

Incoming: Hi, sorry to bother you, what did the test record for Cn1cc(-c2nnc(-c3cn(C)c4ncccc34)s2)c2ccccc21 ?
Outgoing: inactive

Incoming: What did this assay record as the result for O=C(N/N=C/c1ccc([N+](=O)[O-])cc1)c1ccc(Br)o1 ?
Outgoing: inactive

---

System: PC-3 prostate
Assay Remarks: NCI-60 one-dose screen, 48 h
Condition Summary: 10 µM unless noted
The panel holds about 83,000 compounds, 20% with a hit somewhere; the sample as a whole holds those more often. Activity calls are given as the source filed them. How the source made its calls: active means growth percent below 10; inactive means the rest.
Select the matching outcome among true = active, false = inactive

Example cases with answers are listed next.
{"columns": ["Compound", "Assigned Label"],
 "data": [
  ["C=C(CC(=O)OC)C(C)=O", "false"],
  ["O=C1/C(=C\\c2cccn2Cc2ccccc2)c2ccccc2N1c1c(Cl)cccc1Cl", "false"],
  ["CCN(CCO)CCC(=O)c1ccc([N+](=O)[O-])cc1", "false"]
]}

Incoming: Per the records of this test, what outcome belongs to COc1cc(OC)c(/C=C/C(=O)c2c(N)cc(OC)cc2OC)c(OC)c1 ?
Outgoing: false

Incoming: What call does the record list for O=[N+]([O-])c1cc([N+](=O)[O-])c(C(F)(F)F)cc1NN=C(c1ccc(O)cc1)c1ccc(O)cc1 ?
Outgoing: false

Incoming: For this compound, state the assay outcome: Oc1c(CNCCNCc2cc(Cl)cc(Cc3ccccc3)c2O)cc(Cl)cc1Cc1ccccc1
Outgoing: false

Incoming: Give the logged outcome of this assay for the following compound: COc1ccccc1S(=O)Nc1ccccc1 (configuration not stated)
Outgoing: false

Incoming: Short answer needed: outcome of this test for CCc1ccc(C2=C/C(=C/c3ccccc3)C(=O)N2CCc2ccc(S(N)(=O)=O)cc2)cc1 ?
Outgoing: false

Incoming: Dear colleague, could you share the recorded outcome for C=C(CN=[N+]=[N-])[C@@H]1CC[C@]2(C)[C@H](CC[C@@H]3[C@H]4[C@H]5OC(=O)[C@@]4(CCC5(C)C)CC[C@]32C)[C@@]1(C)CCC#N when you have a moment?
Outgoing: false

Incoming: Please indicate how the test categorized C#C[C@]1(O)CC[C@H]2[C@@H]3CC=C4c5nc(Nc6ccccn6)sc5CC[C@]4(C)[C@H]3CC[C@@]21C .
Outgoing: true

Incoming: Per the assay record, what outcome was assigned to CCCCCCCCN(CCCCCCCC)CC(O)c1ccc(Cl)c(C)c1Cl (configuration not stated) ?
Outgoing: false

Incoming: Kindly provide the recorded test outcome for the following compound: Cn1cc(-c2noc(C(=O)c3cn(C)c4ncc(Br)cc34)n2)c2ccccc21
Outgoing: false

Incoming: State the result this test recorded for CSc1nc(N)c(N=Nc2ccc(S(=O)(=O)Nc3nnc(C)s3)cc2)c(=O)[nH]1 .
Outgoing: false

Incoming: Returns: the outcome recorded for CC(C)[C@H]1CCC2=C3CC[C@]45OC(=O)[C@@]6(CCC(C)(C)C[C@H]64)CC[C@@]5(C)[C@]3(C)CC[C@@]21C in this assay.
Outgoing: false

Incoming: Test call, this compound: C[n+]1c2ccccc2nc2c(N)cc(N)cc21
Outgoing: false

Incoming: // outcome(item) with item = CCCCC(CC)COC(=O)C[N+](C)(C)CCOC(c1ccccc1)c1ccccc1 (configuration not stated)
Outgoing: false

Incoming: Could you check what this test reported for CC1Cc2c(Cl)ncnc2N(C)c2ccc(O)cc21 (configuration not stated) ?
Outgoing: false

Incoming: Outcome? Nn1c(Nc2ccc(S(=O)(=O)Nc3ncccn3)cc2)nnc(/C=C/c2c(O)ccc3ccccc23)c1=O
Outgoing: false

Incoming: Which result was noted for this compound in the test: c1ccc(-c2nnc(-c3c[nH]c4ncccc34)s2)cc1
Outgoing: false
